System: trypsin
procedure text: Insulin digestion in immobilized enzyme reactor, buffer screening (Table 7)
Assay type: biochemical, porcine
recorded conditions: 20%; IMER, 70°C, 60 s
measured parameter: Undigested
Write no unit; give the number alone.

Data request: Item: C[S+](C)[O-] [DMSO, dimethylsulfoxide] Test system: trypsin Read-out: Undigested Value: ?
Data returned: 3631216

Data request: Kindly state the measured Undigested obtained for "OCC(F)(F)F" with trypsin.
Data returned: 5626809

Data request: Notebook: pull reported Undigested for trypsin, entry NC=O [Formamide]
Data returned: 4430620

Data request: Test system trypsin; read-out Undigested; what value for "CO" ?
Data returned: 5268985

Data request: Report Undigested for "CC(C)O" tested on trypsin.
Data returned: 5148164

Data request: Under trypsin: Undigested value of "CC#N" ?
Data returned: 6433237

Data request: Give Undigested (trypsin) of the following molecule: "OCC(O)CO"
Data returned: 3174668

----------
Tested on: trypsin
procedure text: Insulin digestion in immobilized enzyme reactor, buffer screening (Table 7)
Format: biochemical, porcine
recorded conditions: 10%; IMER, 70°C, 60 s
Hi there, I'd appreciate the recorded Undigested for every entry that follows.
Form: value (number only, do not type unit).

Data request: Any idea what its Undigested is? The molecule is "CC(C)O"
Data returned: 5774155

Data request: Quick one: Undigested for C[S+](C)[O-] [DMSO, dimethylsulfoxide] ?
Data returned: 2811668

Data request: # query: Undigested of entry NC=O [Formamide]
Data returned: 3827192

Data request: # get_value(readout='Undigested', item= "CC#N" )
Data returned: 4860471

Data request: Look at this molecule and give its reported Undigested. "OCC(O)CO"
Data returned: 2432362

Data request: What value of Undigested has been recorded for this entry: "OCC(F)(F)F"
Data returned: 5112793

Data request: Consider the molecule shown here: "CO" What is its recorded Undigested?
Data returned: 3946896

----------
Answer each item with its documented Digested.
Tested on: porcine trypsin
Construct: purchased
procedure text: Insulin digestion by trypsin in solution, buffer screening (Table 9)
Assay type: biochemical
recorded conditions: 1M, 37°C, 18 h
Where a name gives a salt, the structure may show the parent alone.
Simply state the number, no unit and no words.

Data request: State its Digested on porcine trypsin: "[Cl-].[Na+]"
Data returned: 670170

Data request: Hi! What's the reported Digested for N=C(N)N [Gdn HC1, guanidine hydrochloride] on porcine trypsin?
Data returned: 215746

Data request: Under porcine trypsin: Digested value of "NC(CO)(CO)CO" ?
Data returned: 3458079

Data request: Missing value: Digested, porcine trypsin, entry "NC(N)=O" . Fill in?
Data returned: 1145096

Data request: # query: Digested | item [Ca+2].[Cl-].[Cl-] [CaCl2, calcium chloride] | system: porcine trypsin
Data returned: 3203158

----------
Kindly state Digested for each of the entries shown.
Test system: trypsin
procedure text: Insulin digestion in immobilized enzyme reactor, buffer screening (Table 7)
Assay type: biochemical, porcine
recorded conditions: 1M; IMER, 70°C, 60 s
Counter-ions that a name gives are not always drawn.
Provide a numeric answer; units are not to be included.

Data request: Quick one: Digested of N=C(N)N [Gdn HC1, guanidine hydrochloride] ?
Data returned: 423606

Data request: // returns reported Digested for input [Cl-].[Na+] [NaCl]
Data returned: 2363025

Data request: Data request, read-out Digested, for [Ca+2].[Cl-].[Cl-] [CaCl2, calcium chloride]
Data returned: 3066738

Data request: Can you look up the measured Digested of NC(CO)(CO)CO [Tris] for me?
Data returned: 1923103

Data request: Query (compound): NC(N)=O [Urea] ; field requested: Digested
Data returned: 1448998
